Target: T1, SARS-COV-2 RBD (SARS-COV-2, UniProt P0DTC2 319-539)
T1 construct: also called WT RBD
Test: ELISA, RBD coated
OBSERVED_PROPERTY: EC50 (ng/mL)
Give bare numbers, in ng/mL.

{"columns": ["BINDER", "EC50 (ng/mL)"],
 "data": [
  ["C968 (antibody, V domains shown, IgG; V domains only) VH: QVQLVESGGGVVQPGRSLRLSCAASGFTFRIYAMHWVRQAPGKGLEWVAIIWNDGNKKDYVDSVKGRFTISRDNSRNTVYLQMNSLRVDEDTAVYYCAREGVAVGGNGVDGFDMWGQGTMVTVSS VL: DIQMTQSPSSLSSSVGDRVTITCRASQSIGIYLNWYQQKPGKVPNLLIYAASTLQTGAPSRFSGSGSGTDFILSISSLQPEDFATYYCQQTYSVPYTFGQGTKLEIK", 3.19],
  ["C1035 (antibody, V domains shown, IgG; V domains only) VH: EVQLVESGGGLIQPGGSLRLSCAASGLTVSRNYMNWVRQAPGKGLEWVSVMYSGGSTFYADSVKGRFTISRDNSKNTLYLQMNSLRAEDTAVYYCARESYGMDVWGQGTTVTVSS VL: EIVLTQSPGTLSLSPGERATLSCRASQSFSSTYLAWYQQKPGQAPRLLIYGASSRATGIPDRFSGSGSGTDFTLTISRLEPEDFAVYYCQQYVTSPWTFGQGTKVEIK", 2.05],
  ["C992 (antibody, V domains shown, IgG; V domains only) VH: QVQLQESGPGLVKPSQTLSLTCTVSGGSISNGGYFWTWIRQHPVKGLEWIGYIYYSGSPHYNPSLKSRLSISLDTFKNQFSLNLSSVTAADTAVYYCARGDTFGRGYYFDFWGQGTLVTVSS VL: SYELTQPPSVSVAPGQTARITCGGNNIGTNSMHWYQQKPGQAPVLVVFDDSDRPSGIPERFSGSNSGNTATLTISRVEAGDEADYHCQVWDRSSDRPWVFGGGTKLTVL", 3.24]
]}

Items follow; give EC50 for each.
1. C999 (antibody, V domains shown, IgG; V domains only) VH: QVQLVQSGAEVRRPGASVKVSCKASGYTLTHYYIHWVRQAPGQGLEWVGIINPDGDNTNYAQKFQGRVTMTRDTSTSTVYMELSSLRSEDTAIFYCARGGAIPALRSAFDIWGQGTMVTVSS VL: DIQMTQSPSTLSASVGDRVTITCRASQSINNWLAWYQQKPGKAPKLLIYKASTLESGVPSRFSGSGSGTEFTLTISSLQPDDFATYYCQQYNSYFFGQGTKLEIK
2. C987 (antibody, V domains shown, IgG; V domains only) VH: QVQLQESGPGLVKPSETLSLTCNVSGDIINKYYWSWIRQSPGKGLEWIGYIYYSGTTYYNPSLKSRVTMSVGTSKQQFSLRLTSVTAADTAVYYCARMLSTEWSFNWFDPWGPGTLVTVSS VL: SYELTQPPSVSVSPGQAASITCSGDKLGDKFACWYQQKPGQSPVLVIYQNDKRPTGIPERFSGSNSGNTATLTISGTQAMDEADYFCQAWDSTSASVFGTGTKVTVL
3. C976 (antibody, V domains shown, IgG; V domains only) VH: EVQLVESGGALIQPGGSLRLSCAASGFTVSSNDMTWVRQAPGKGLEWVSVIYTGGGTYHADSAKGRFIISRHNSKNTLSLQMNDLRAEDTAVYYCARLTMTTYYFDSWGQGTLVTVSS VL: SYELTQPPSVSLAPGQTARITCGGNGIGSKSVHWYQQKPGRAPVLVVYDDSVRPSGTPARFSGANSGNTATLTISRVEAGDEADYYCQVWDSFRDHQDWVFGGGTKLTVL
4. C901 (antibody, V domains shown, IgG; V domains only) VH: QVQLVESGGGVVQPGRSLRIACGASGFTFSTYDMHWVRQAPVKGLEWVAVISRDGSGKFYADSVKGRFTISRDNSKKTLYLQMDSLRPEDTAMYYCARDFESRTWDPPKYYYALDVWGQGTTVTVSS VL: DIQMTQSPSSLSASVGDRVTITCRASQSISTYLNWYQQKPGKAPSLLIYAASSLYSGVPSRFSGSGSGTDFSLTISSLQPEDFATYYCQQTYTTPTWTFGQGTKVEIK
5. C852 (antibody, V domains shown, IgG; V domains only) VH: QVQLVQSGAEVKKPGASVKVSCKASGYIFTGFYMHWVRQAPGQGPEWMGWINPNSGGTNYAQKFQGRVTMTRDTSISTAYMELSRLRSDDTALYYCARGGQDELTGTFDVWGQGTMVTVSS VL: SYELTQPPSVSLAPGKTASITCGGDSIGSKSVHWYQQRPGQAPILVIYYDGDRPSGIPERFSGSNSGNTATLTISRVEAGDEADYYCQVWDGGWVFGGGTKLTVL
6. C885 (antibody, V domains shown, IgG; V domains only) VH: QVQLQESGPGLVKPSQTLSLTCAVSGDSIRSGGYYWSWVRQHPGRGLEWIGYIYFSGTTYYNPSLKSRVTISVDTSEKQFSLKLTSVTDADTAVYFCARVKGWLRGYFDYWGQGALVTVSS VL: NFMLTQSHSVSESPGKTVTISCTGSSGNIVNNYVQWYQQRPGSAPIIVIYEDTQRPSGVPDRFSGSIDTSSNSASLTISGLKTEDEADYYCQSYDSGSHVVFGGGTKLTV
7. C975 (antibody, V domains shown, IgG; V domains only) VH: EVQLVESGGDLTQPGGSLRLSCAASGFTFSSYDMHWVRQATGKGLEWVSGIGTSGDTYYADSVKGRFTISRENAKNSLFLQMNNLRAGDTATYYCARTEYAWGSYRSYWYFDLWGRGTLVTVSS VL: DIQMTQSPSSLSASVGDRVTITCRTSQTISTYLNWYQQKPGKAPKVLIYAASSLQSGVPSRFSGSGSGTDFTLTISSLQPEDFATYFCQQSYSAPPWTFGPGTKVEIK

Result block:
2.68
3.11
2.52
2.01
4.59
7.45
2.88
